- measured-on: hMC5-R (Homo sapiens, UniProt P33032)
- Construct: expressed in transfected cells; host or cells: CHO-K1
- Sequence (P33032 whole entry): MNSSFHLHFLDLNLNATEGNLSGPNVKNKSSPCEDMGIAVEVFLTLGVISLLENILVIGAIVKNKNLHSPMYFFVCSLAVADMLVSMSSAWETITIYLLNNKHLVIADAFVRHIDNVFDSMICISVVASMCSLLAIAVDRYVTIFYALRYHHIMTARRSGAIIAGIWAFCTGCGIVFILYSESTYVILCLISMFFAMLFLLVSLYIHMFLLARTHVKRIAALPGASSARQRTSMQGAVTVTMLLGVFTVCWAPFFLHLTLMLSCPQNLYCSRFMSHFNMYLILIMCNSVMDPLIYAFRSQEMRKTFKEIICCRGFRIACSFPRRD
- method-notes: Radioligand binding assay, [125I]-NDP-α-MSH competition, CHO-K1 membranes
- test-settings: Table 5; read-out: Ki hMC5-R
Bridge positions count the residues as written; N and C are the ends. Square brackets hold non-standard residues; d marks the D form. Peptide text beside a SMILES is read from it. Bip = N[C@@H](Cc1ccc(-c2ccccc2)cc1)C(=O)O; 1Nal = N[C@@H](Cc1cccc2ccccc12)C(=O)O; d2Nal = N[C@H](Cc1ccc2ccccc2c1)C(=O)O; hArg = N=C(N)NCCCC[C@H](N)C(=O)O; Nle = CCCC[C@H](N)C(=O)O; GABA = NCCCC(=O)O; βAla = NCCC(=O)O
Field: label. Allowed values: class 1 (Ki < 1000 nM) or class 0 (Ki >= 1000 nM).

The examples below pair each entry with its known result.
CCCC[C@H](NC(C)=O)C(=O)N[C@H]1CSSC[C@@H](C(N)=O)NC(=O)CCCNC(=O)[C@H](Cc2c[nH]c3ccccc23)NC(=O)[C@H](CCCNC(=N)N)NC(=O)[C@@H](Cc2ccc3ccccc3c2)NC(=O)[C@H](Cc2c[nH]cn2)NC1=O (Ac-[Nle]CH[d2Nal]RW[GABA]C-NH2; disulfide 2-8)
class 1
C[C@@H](O)[C@H](NC(=O)[C@H]1CSSC[C@H](NC(=O)[C@H](N)Cc2ccccc2)C(=O)N[C@@H](Cc2c[nH]cn2)C(=O)N[C@H](Cc2ccccc2)C(=O)N[C@@H](CCCNC(=N)N)C(=O)N[C@@H](Cc2ccc(-c3ccccc3)cc2)C(=O)NCCC(=O)N1)C(N)=O (H-[dF]CH[dF]R[Bip][βAla][dC]T-NH2; disulfide 2-8)
class 0
CCOc1ccc(C[C@H]2NC(=O)[C@H](Cc3c[nH]cn3)NC(=O)[C@@H](NC(=O)[C@H](N)Cc3ccccc3)CSSC[C@H](C(=O)N[C@H](C(N)=O)[C@@H](C)O)NC(=O)CCNC(=O)[C@H](Cc3ccc(-c4ccccc4)cc3)NC(=O)[C@H](CCCCNC(=N)N)NC2=O)cc1 (H-[dF]CH[dY](Et)[hArg][Bip][βAla][dC]T-NH2; disulfide 2-8)
class 1
CCCC[C@H](NC(C)=O)C(=O)N[C@H]1CSSC[C@@H](C(N)=O)NC(=O)[C@H](Cc2cccc3ccccc23)NC(=O)[C@H](CCCNC(=N)N)NC(=O)[C@@H](Cc2ccc3ccccc3c2)NC(=O)[C@H](Cc2c[nH]cn2)NC(=O)[C@@H](C)NC1=O (Ac-[Nle]C[dA]H[d2Nal]R[1Nal]C-NH2; disulfide 2-8)
class 0

Below 1000 nM on Ki? Entry CCCC[C@H](NC(C)=O)C(=O)N[C@H]1CSSC[C@@H](C(N)=O)NC(=O)[C@@H](C)NC(=O)[C@H](Cc2c[nH]c3ccccc23)NC(=O)[C@H](CCCNC(=N)N)NC(=O)[C@@H](Cc2ccccc2)NC(=O)[C@H](Cc2c[nH]cn2)NC(=O)[C@@H](C)NC1=O (Ac-[Nle]C[dA]H[dF]RW[dA]C-NH2; disulfide 2-9) class 0
